# experimental-system: HIV-1 92UG037-08 gp120 (HIV-1 strain 92UG037-08)
# assay-details: SPR (Biacore 3000); peptide over immobilized gp120
Field: Kd. Provide a value for each of the binders that follow.
Numbers only, in nM.

>>> data_value("RINNIPWSEAMM (modifications not checked) [HNG-156]")
16.3

Pending binder:
Which Kd value belongs to RINNIPWSEAMM (modifications not checked) [HNG-105] ?
1840
